Can you tell me B-scores (MUT) for the items I'm about to list?
Assayed system: MRGPRX2-MUT (MRGPRX2 N62S mutation) (Homo sapiens, UniProt Q96LB1, N62S)
Construct: expressed in transfected cells
Assay notes: Primary HTS, Ca2+ mobilization (fluorescence ratio, B-score) in HEK293-Gα15 cells stably expressing the MRGPRX2 N62S mutation
Format: cell-based
Experimental setup: 10 μM compound, MRGPRX2-MUT (N62S) cells, Supplementary Table 1
Description: We performed an experimental HTS on the Johns Hopkins Drug Library, which includes 1,811 (57%) FDA-approved drugs among 3,456 total compounds (28% of all known drugs worldwide) ([15]). […] We utilized 10 μM compounds (each compound was tested in triplicate) and calculated the compound effect using the signal-to-background fluorescence ratio (see Supplementary Methods). […]
Where a name gives a salt, the structure may show the parent alone.
Numbers only.

{"Molecule": "CC(=O)Oc1cc(C(C)C)c(OCCN(C)C)cc1C [Moxisylyte Hydrochloride]", "Measured result": 1.32}

Hey, quick one: what's B-scores (MUT) for each of these?
1. COC(=O)C1=CCCN(C)C1 [Arecoline Hydrobromide]
2. CN(C)CCC(c1ccc(Br)cc1)c1ccccn1 (centres unmarked) [Brompheniramine Maleate]
3. COc1ccc(CN(CCN(C)C)c2ncccn2)cc1 [Thonzylamine Hydrochloride]
4. Nc1ncnc2c1ncn2[C@@H]1O[C@H](CO)[C@@H](O)[C@H]1O [Adenosine]
5. COc1ccc2cc1Oc1ccc(cc1)C[C@H]1c3c(cc4c(c3Oc3cc5c(cc3OC)CCN(C)[C@@H]5C2)OCO4)CCN1C [Cepharanthine]
6. COc1ccc2c(c1)[C@]13CCCC[C@@H]1[C@H](C2)N(C)CC3 [Dextromethorphan hydrobromide]

[58.08, 1.21, 1.69, 0.32, 1.14, 84.34]

// B-scores (MUT) lookup, key: CNCC[C@H](Oc1cccc2ccccc12)c1cccs1 [Duloxetine Hydrochloride]
0.64

----------
Assayed system: MRGPRX2-WT (Homo sapiens, UniProt Q96LB1)
Sequence (Q96LB1 1-330): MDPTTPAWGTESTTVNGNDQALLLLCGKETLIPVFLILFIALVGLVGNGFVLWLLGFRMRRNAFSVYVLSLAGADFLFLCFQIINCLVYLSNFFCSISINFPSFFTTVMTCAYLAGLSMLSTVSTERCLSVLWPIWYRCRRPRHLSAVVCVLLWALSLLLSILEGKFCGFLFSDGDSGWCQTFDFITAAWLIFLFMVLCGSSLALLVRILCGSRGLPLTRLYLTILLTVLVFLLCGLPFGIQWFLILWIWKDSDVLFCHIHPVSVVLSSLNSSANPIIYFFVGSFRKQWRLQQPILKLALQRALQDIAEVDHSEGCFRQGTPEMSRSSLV
Assay notes: Calcium response dose-response curves in HEK293-Gα15 cells expressing MRGPRX2-WT
Where a name gives a salt, the structure may show the parent alone.
Assay readout: EC50 (nM)
One number for each entry, in nM.

Request - read-out EC50 | tested on MRGPRX2-WT (Homo sapiens, UniProt Q96LB1) | compound COc1cccc2c1C(=O)c1c(O)c3c(c(O)c1C2=O)C[C@@](O)(C(=O)CO)C[C@@H]3O[C@H]1C[C@H](N)[C@H](O)[C@H](C)O1 [Doxorubicin Hydrochloride]
131

----------
Assayed system: MRGPRX2-MUT (MRGPRX2 N62S mutation) (Homo sapiens, UniProt Q96LB1, N62S)
Construct: expressed in transfected cells
Sequence (Q96LB1 1-330 N62S): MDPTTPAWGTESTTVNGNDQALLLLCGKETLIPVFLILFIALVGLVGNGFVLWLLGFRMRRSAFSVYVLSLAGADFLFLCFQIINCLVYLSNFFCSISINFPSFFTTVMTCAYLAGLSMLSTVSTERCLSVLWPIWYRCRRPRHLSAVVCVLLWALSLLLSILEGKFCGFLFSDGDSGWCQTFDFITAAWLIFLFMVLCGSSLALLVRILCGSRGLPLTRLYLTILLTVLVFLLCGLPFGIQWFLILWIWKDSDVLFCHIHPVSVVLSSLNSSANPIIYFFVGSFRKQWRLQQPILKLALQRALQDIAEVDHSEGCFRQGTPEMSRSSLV
Assay notes: Primary HTS, Ca2+ mobilization (fluorescence ratio, B-score) in HEK293-Gα15 cells stably expressing the MRGPRX2 N62S mutation
Assay type: cell-based
Experimental setup: 10 μM compound, MRGPRX2-MUT (N62S) cells, Supplementary Table 1
Counter-ions that a name gives are not always drawn.
Assay readout: B-scores (MUT)
Give bare numbers.

{"Compound": "CN(C)CC[C@@H](c1ccc(Cl)cc1)c1ccccn1 [Dexchlorpheniramine Maleate]", "Assayed system": "MRGPRX2-MUT (MRGPRX2 N62S mutation) (Homo sapiens, UniProt Q96LB1, N62S)", "Measured result": 0.56}
{"Compound": "CN1CCC(=C2c3ccccc3CC(=O)c3sccc32)CC1 [Ketotifen]", "Assayed system": "MRGPRX2-MUT (MRGPRX2 N62S mutation) (Homo sapiens, UniProt Q96LB1, N62S)", "Measured result": 1.38}
{"Compound": "NCCC(O)(P(=O)([O-])O)P(=O)([O-])O.[Na+].[Na+] [Pamidronate disodium]", "Assayed system": "MRGPRX2-MUT (MRGPRX2 N62S mutation) (Homo sapiens, UniProt Q96LB1, N62S)", "Measured result": 18.72}

Hey, quick one: what's B-scores (MUT) for each of these?
1. CNCCCC1c2ccccc2C=Cc2ccccc21 [Protriptyline Hydrochloride]
2. CC(C[N+](C)(C)C)OC(N)=O (centres unmarked) [Bethanechol Chloride]
3. CN1CCc2c(c3ccccc3n2Cc2ccccc2)C1.CN1CCc2c(c3ccccc3n2Cc2ccccc2)C1.O=S(=O)(O)c1cccc2c(S(=O)(=O)O)cccc12 [Mebhydrolin Naphthalenesulfonate]
4. N=C(N)c1ccc(OCCCCCOc2ccc(C(=N)N)cc2)cc1 [Pentamidine]
5. CN(C)CCCN1c2ccccc2CCc2ccccc21 [Imipramine Hydrochloride]

3.59
37.55
1.93
8.70
16.90
